IRF Lucia reporter activity for assorted molecules
# Test system: RAW-Dual
# Test Summary: IRF Lucia reporter activity, fold change vs agonist alone; higher = enhanced IRF activity
# Applied Conditions: library stock concentration (final ~1000-fold dilution): 10 mM; cytotoxicity flag (confluency mask): cytotoxic (confluency <70% of control); agonist: MPLA (TLR4) […]
Over roughly 2,900 compounds, “IRF Lucia reporter activity, fold change vs agonist alone” has its median near 0.9; the highest 2% begin near 2.8. The full list was thinned out, with the highest values kept by preference.
Readout: IRF Lucia reporter activity

INSERT INTO assay_data (molecule, readout, value) VALUES
  ('CN1CCN(CCCN2c3ccccc3Sc3ccc(Cl)cc32)CC1.O=C(O)/C=C\C(=O)O.O=C(O)/C=C\C(=O)O', 'IRF Lucia reporter activity', 0.883),
  ('Cc1nc(Nc2cnn(C3CCNCC3)c2)nc2c1N(C)C(=O)c1cc3ccccc3cc1N2C', 'IRF Lucia reporter activity', 3.71),
  ('CCC1(O)C(=O)OCc2c1cc1n(c2=O)Cc2cc3c(CN(C)C)c(O)ccc3nc2-1.Cl (stereo not drawn)', 'IRF Lucia reporter activity', 3.1),
  ('CCOC(=O)C1=C(COCCN)NC(C)=C(C(=O)OC)C1c1ccccc1Cl.O=S(=O)(O)c1ccccc1 (stereo not drawn)', 'IRF Lucia reporter activity', 3.36),
  ('CCC1(O)C(=O)OCc2c1cc1n(c2=O)Cc2cc3cc(O)ccc3nc2-1 (stereo not drawn)', 'IRF Lucia reporter activity', 2.58),
  ('COc1cc2nc(N3CCCC3)nc(NCCCCCN3CCCC3)c2cc1OC', 'IRF Lucia reporter activity', 0.8),
  ('CNCCC=C1c2ccccc2CCc2ccccc21.Cl', 'IRF Lucia reporter activity', 1.38),
  ('Cn1cncc1C(N)(c1ccc(Cl)cc1)c1ccc2c(c1)c(-c1cccc(Cl)c1)cc(=O)n2C (stereo not drawn)', 'IRF Lucia reporter activity', 0.481),
  ('C=C1CCN(C(C)C(O)(Cn2cncn2)c2ccc(F)cc2F)CC1 (stereo not drawn)', 'IRF Lucia reporter activity', 2.14),
  ('CCOC(=O)c1cnc2ccc(-c3cncc(NS(=O)(=O)c4ccccc4)c3)cn12', 'IRF Lucia reporter activity', 4.46),
  ('Cc1ccc(C2OC(CO)C(O)C(O)C2O)cc1Cc1ccc(-c2ccc(F)cc2)s1.Cc1ccc(C2OC(CO)C(O)C(O)C2O)cc1Cc1ccc(-c2ccc(F)cc2)s1.O (stereo not drawn)', 'IRF Lucia reporter activity', 0.0328),
  ('O=C(Nc1cc(C(F)(F)F)cc(C(F)(F)F)c1)c1cc(Cl)ccc1O', 'IRF Lucia reporter activity', 3.54),
  ('CN1CC2c3ccccc3Oc3ccc(Cl)cc3C2C1.O=C(O)/C=C\C(=O)O (stereo not drawn)', 'IRF Lucia reporter activity', 1.95);

###

# Tested on: RAW-Dual
# Test Summary: IRF Lucia reporter activity, fold change vs agonist alone; cytotoxicity flag (confluency mask): not cytotoxic; higher = enhanced IRF activity
# Applied Conditions: agonist: LPS (TLR4) 0.1 ug/mL
Over roughly 2,900 compounds, “IRF Lucia reporter activity, fold change vs agonist alone” has its median near 0.9; the highest 2% begin near 2.8. This is one part of a sample in which the highest values are shown more often than they occur.
Readout: IRF Lucia reporter activity

INSERT INTO results (compound, readout, value) VALUES
  ('O=c1cc(N2CCOCC2)oc2c(-c3ccc4c(c3)OCCO4)csc12 (library stock concentration (final ~1000-fold dilution): 10 mM)', 'IRF Lucia reporter activity', 0.269),
  ('CCCC(=O)OCOC(=O)C1=C(C)NC(C)=C(C(=O)OC)C1c1cccc(Cl)c1Cl (stereo not drawn) (library stock concentration (final ~1000-fold dilution): 10 mM)', 'IRF Lucia reporter activity', 0.873),
  ('CC(=O)OC1CC/C(C)=C/CC/C(C)=C/CC2(C(C)C)CCC1(C)O2 (stereo not drawn) (library stock concentration (final ~1000-fold dilution): 10 mM)', 'IRF Lucia reporter activity', 0.744);

All figures here come from the supplement of paper PMC10037445.
